The values you see were collected from paper PMC8809517.

# Measured on: T1, GFP-9S library array, motif 4 ND N98R;D124R (synthetic construct, N98R;D124R)
# T1 chain: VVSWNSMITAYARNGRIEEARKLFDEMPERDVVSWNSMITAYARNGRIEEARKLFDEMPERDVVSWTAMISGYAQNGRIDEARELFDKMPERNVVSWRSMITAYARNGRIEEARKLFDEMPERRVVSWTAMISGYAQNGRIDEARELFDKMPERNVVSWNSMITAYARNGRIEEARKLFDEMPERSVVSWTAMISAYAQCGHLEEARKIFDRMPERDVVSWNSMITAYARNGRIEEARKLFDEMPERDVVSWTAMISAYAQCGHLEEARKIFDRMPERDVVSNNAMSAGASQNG
# Assay overview: high-throughput RNA pulldown from lysate on Ni-NTA beads; HRP: 50 mM Tris pH 8, 150 mM NaCl, 1 mM beta-mercaptoethanol, 50 ug/ml BSA, 3 ug/ml yeast RNA, 0.5% heparin; ITC and FP: Tris pH 8, 200 mM KCl, 5% glycerol; MST: 50 mM Tris pH 8, 200 mM NaCl, 1 mM DTT, BSA, heparin, 0.05% Tween 20
# Measurement parameters: tags: N-terminal His-eGFP; label: 5' Cy5
Experimental endpoint: pKd
In textbook form, pKd equals minus log to base ten of the concentration in mol/L.

Binder	pKd
AUUAGACGUGA (ssRNA) [Cy5-rpoA-G]	7.27

# input for lookup
Data request, read-out pKd, for AUUACACGUGA (ssRNA) [Cy5-rpoA]
7.01
